Target: T1, TRAIL (human, UniProt P50591 114-281)
T1 construct: also called TNF-related apoptosis inducing ligand
T1 sequence (P50591 114-281 limits assumed): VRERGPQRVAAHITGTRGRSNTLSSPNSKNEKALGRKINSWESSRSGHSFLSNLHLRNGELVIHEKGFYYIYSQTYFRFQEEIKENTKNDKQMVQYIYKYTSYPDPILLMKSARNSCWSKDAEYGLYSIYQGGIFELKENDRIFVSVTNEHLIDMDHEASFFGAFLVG
Assay: phage ELISA
measurement name: binding result

I002A01-K (scFv) scFv: QVQLVQSGAEVKKPGSSVKVSCRASGGSFNKHAISWVRQAPGRGLEWMGGILPMYGTANYAQKFQGRVTITADKLTNTVYMDLSRLRYEDTAVYYCARELGLSIVGATTGALDMWGKGTLVTVSSGGGGSGGGGSGGGGSALPVLTQPPSVSVAPGQTATLTCGGTNFGRQSVHWYQQKPGQAPVLAIYHDDVRPSGIPERLSGSKSGNTATLTISRVEAGDEAAYYCQVWDSGSDVVVFGGGTKLTVLG = no binding
I008C02 (scFv) scFv: AVQLQESGPGLVKPSETLSLTCSVSGASMTTNKFYWSWIRQPPGKGLEWIGNINYSKSTNYNPSLKSRITISVDTSKNQLSLKLNSVTAADTAVYYCARHVRDYDILTGYYRGHYFDYWGQGTMVTVSSGGGGSGGGGSGGGGSQSVLTQPASVSGSPGQSITISCTGTSSDVGGYNYVSWYQQHPGKAPKLMIYEGSKRPSGVSNRFSGSKSGNTASLTISGLQAEDEADYYCSSYTTRSTRVFGGGTKLTVLG = no binding

meta.source: patent US20110293610A1
